This section presents compounds with their documented pIC50 values.
target: Glycogen synthase kinase-3 alpha/beta (Sus scrofa); test: Inhibition of pig brain GSK-3alpha/beta
Keep in mind that pIC50 stands for -log10 of concentration in molar terms.

Here are 10 compounds together with their reported answers.
CN1C(=O)/C(=C/c2ccc3c(c2)OCO3)N=C1Nc1ccc2c(c1)OCO2 = 5.24
CN1C(=O)/C(=C/c2ccc3c(c2)OCO3)N=C1NCCO = 5.89
CC(C)CCNC1=N/C(=C\c2ccc3c(c2)OCO3)C(=O)N1C = 5.70
CN1C(=O)/C(=C/c2ccc3c(c2)OCO3)N=C1NCCN1CCOCC1 = 5.40
C=CCNC1=N/C(=C\c2ccc3c(c2)OCO3)C(=O)N1C = 5.80
O=C1NC(NCC2CC2)=N/C1=C\c1ccc2c(c1)OCO2 = 5.33
CCNC1=N/C(=C\c2ccc3c(c2)OCO3)C(=O)N1C = 4.80
CCCNC1=N/C(=C\c2ccc3c(c2)OCO3)C(=O)N1 = 5.14
COc1ccc(NC2=N/C(=C\c3ccc4c(c3)OCO4)C(=O)N2C)cc1 = 6.15
CCNC1=N/C(=C\c2ccc3c(c2)OCO3)C(=O)N1 = 5.62

Challenge: Would you kindly share the measured pIC50 for CC(C)CNC1=N/C(=C\c2ccc3c(c2)OCO3)C(=O)N1C ?
Response given: 5.51

Challenge: # pIC50 lookup, item CN1C(=O)/C(=C/c2ccc3c(c2)OCO3)N=C1NCCN
Response given: 6.04

----------
molecular target: UniProt:P49759; experiment: Inhibition of CLK1 transfected in human HeLa cells assessed as increase in exon inclusion ratio after 24 hrs by RT-PCR analysis; format: cell-based
Sequence (P49759 whole entry, looked up): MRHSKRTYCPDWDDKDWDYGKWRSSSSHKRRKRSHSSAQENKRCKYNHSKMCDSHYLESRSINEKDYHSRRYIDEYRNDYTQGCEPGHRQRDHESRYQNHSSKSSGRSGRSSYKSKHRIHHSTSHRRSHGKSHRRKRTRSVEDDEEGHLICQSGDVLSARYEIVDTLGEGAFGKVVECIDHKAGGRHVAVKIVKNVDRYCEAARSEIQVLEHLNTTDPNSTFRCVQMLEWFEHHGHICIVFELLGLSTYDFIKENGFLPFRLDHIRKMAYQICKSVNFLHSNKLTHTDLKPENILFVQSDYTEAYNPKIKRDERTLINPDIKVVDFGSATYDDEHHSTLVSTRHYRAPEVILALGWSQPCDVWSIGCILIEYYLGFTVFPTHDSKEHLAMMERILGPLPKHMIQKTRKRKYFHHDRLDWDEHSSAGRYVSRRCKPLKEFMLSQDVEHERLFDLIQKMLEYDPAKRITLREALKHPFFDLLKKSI
endpoint-label: increase in exon inclusion ratio

CCN1/C(=C/C(C)=O)Sc2ccc(OC)cc21 = Dose-dependent effect
COc1ccc2c(c1)[nH]c1c(C)nccc12 = Dose-dependent effect
O=C1NC(Nc2ccccc2)=N/C1=C\c1ccc2c(c1)OCO2 = Dose-dependent effect

----------
organism: Sus scrofa; assay: Inhibition of pig brain CK1 delta/epsilon using RRKHAAIGpSAYSITA as substrate at 10 uM
Calls of active or inactive are those of the source. The calls are words filed in the database; no cut-off is given here.
endpoint-label: inhibition

CCCNC1=N/C(=C\c2ccc(Br)cc2)C(=O)N1C = inactive
CN1C(=O)/C(=C/c2ccc3c(c2)OCO3)N=C1NC1CCCC1 = inactive
CN1C(=O)/C(=C/c2ccc3c(c2)OCO3)N=C1Nc1ccccc1 = inactive
CCNC1=N/C(=C\c2ccc3c(c2)OCO3)C(=O)N1C = inactive
O=C1NC(Nc2ccccc2)=N/C1=C\c1ccc2c(c1)OCO2 = inactive

Challenge: Name the reported inhibition value associated with the compound CCCNC1=N/C(=C\c2cc(OC)c(OC)c(OC)c2)C(=O)N1C
Response given: inactive

Challenge: For the compound CCCNC1=N/C(=C\c2ccccc2)C(=O)N1C , what inhibition is on record?
Response given: inactive

Challenge: Data request, read-out inhibition, for CCCNC1=N/C(=C\c2ccc3c(c2)OC(F)(F)O3)C(=O)N1C
Response given: inactive

Challenge: Any idea what its inhibition is? The compound is CC(=O)NC1=N/C(=C\c2ccc3c(c2)OCO3)C(=O)N1C
Response given: inactive

Challenge: Entry CCCCNC1=N/C(=C\c2ccc3c(c2)OCO3)C(=O)N1C : reported inhibition = ?
Response given: inactive

Challenge: Name the recorded inhibition for O=C1NC(NCC2CC2)=N/C1=C\c1ccc2c(c1)OCO2 .
Response given: inactive

----------
biological target: Dual specificity tyrosine-phosphorylation-regulated kinase 2 (Homo sapiens, UniProt Q92630); assay: Inhibition of human recombinant GST-tagged DYRK2 using KKISGRLSPIMTEQ as substrate and [gamma32]-ATP after 30 mins by scintillation counting
Sequence (Q92630 whole entry): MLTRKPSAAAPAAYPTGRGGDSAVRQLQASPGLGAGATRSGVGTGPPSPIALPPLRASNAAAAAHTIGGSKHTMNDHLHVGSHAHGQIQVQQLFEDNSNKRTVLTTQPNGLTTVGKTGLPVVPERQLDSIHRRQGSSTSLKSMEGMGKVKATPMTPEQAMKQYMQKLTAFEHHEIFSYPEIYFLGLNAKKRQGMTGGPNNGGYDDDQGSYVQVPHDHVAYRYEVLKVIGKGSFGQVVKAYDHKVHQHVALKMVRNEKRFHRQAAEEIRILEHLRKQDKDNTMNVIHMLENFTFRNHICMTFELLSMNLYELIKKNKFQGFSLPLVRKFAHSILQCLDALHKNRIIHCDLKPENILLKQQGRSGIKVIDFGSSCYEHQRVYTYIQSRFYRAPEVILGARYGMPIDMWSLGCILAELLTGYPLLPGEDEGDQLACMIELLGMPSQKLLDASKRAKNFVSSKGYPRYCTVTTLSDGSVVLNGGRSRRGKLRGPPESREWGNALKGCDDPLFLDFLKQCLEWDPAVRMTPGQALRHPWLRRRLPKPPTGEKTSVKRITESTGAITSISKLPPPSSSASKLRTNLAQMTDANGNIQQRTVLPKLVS
endpoint-label: IC50 (nM)
Form entry: value (nM) — number only.

CC(=O)NC1=N/C(=C\c2ccc3c(c2)OCO3)C(=O)N1C = 5100

Challenge: Name the reported IC50 value associated with the compound CN1C(=O)/C(=C/c2ccc3c(c2)OCO3)N=C1Nc1ccc(O)cc1
Response given: 1100

Challenge: Name the recorded IC50 for CC(C)CCNC1=N/C(=C\c2ccc3c(c2)OCO3)C(=O)N1C .
Response given: 560

Challenge: Given CC(C)CNC1=N/C(=C\c2ccc3c(c2)OCO3)C(=O)N1C , state its recorded IC50.
Response given: 210

Challenge: # lookup: IC50 of CCCCNC1=N/C(=C\c2ccc3c(c2)OCO3)C(=O)N1C
Response given: 610

Challenge: For O=C1NC(NCC2CC2)=N/C1=C\c1ccc2c(c1)OCO2 , what is its reported IC50?
Response given: 47

Challenge: Which value of IC50 has been reported for COCCNC1=N/C(=C\c2ccc3c(c2)OCO3)C(=O)N1C in the records?
Response given: 770

----------
target: Dual specificity tyrosine-phosphorylation-regulated kinase 1A (Rattus norvegicus, UniProt Q63470); experiment: Inhibition of rat recombinant GST-tagged DYRK1A using KKISGRLSPIMTEQ as substrate and [gamma32]-ATP after 30 mins by scintillation counting
This listing pairs molecules with measured pIC50.
# pIC50 is unitless: minus log10 of the molar concentration; print number only

Some solved entries appear below for comparison.
CN1C(=O)/C(=C/c2ccc3c(c2)OCO3)N=C1Nc1ccc(O)cc1 = 6.36
CN1C(=O)/C(=C/c2ccc3c(c2)OCO3)N=C1NCCO = 5.15
CCNC1=N/C(=C\c2ccc3c(c2)OCO3)C(=O)N1C = 6.24
CCCCNC1=N/C(=C\c2ccc3c(c2)OCO3)C(=O)N1C = 6.30
Cc1ccc(NC2=N/C(=C\c3ccc4c(c3)OCO4)C(=O)N2)cc1 = 6.77
O=C1NC(Nc2ccc3c(c2)OCO3)=N/C1=C\c1ccc2c(c1)OCO2 = 7.18

Proceed to the following item.
Challenge: Quick one: pIC50 for CC(=O)NC1=N/C(=C\c2ccc3c(c2)OCO3)C(=O)N1C ?
Response given: 5.51

----------
molecular target: Serine/threonine-protein kinase pim-1 (Homo sapiens); assay: Inhibition of human recombinant Pim1
pIC50: −log10 of the molar value.
endpoint-label: pIC50

Examples from the recorded data:
CCCNC1=N/C(=C\c2ccc3c(c2)OCO3)C(=O)N1CCC = < 5.00
CN1C(=O)/C(=C/c2ccc3c(c2)OCO3)N=C1N [LEUCETTAMINE B] = < 5.00
O=C1NC(Nc2ccc(O)cc2)=N/C1=C\c1ccc2c(c1)OCO2 = 5.92

Challenge: Which measured pIC50 value corresponds to CC(C)CNC1=N/C(=C\c2ccc3c(c2)OCO3)C(=O)N1C ?
Response given: 5.70

Challenge: # pIC50 lookup, item CCCNC1=N/C(=C\c2ccccc2)C(=O)N1C
Response given: < 5.00

Challenge: Param item = COCCNC1=N/C(=C\c2ccc3c(c2)OCO3)C(=O)N1C ; retrieve measured pIC50.
Response given: < 5.00

----------
molecular target: Dual specificity tyrosine-phosphorylation-regulated kinase 1A (Rattus norvegicus, UniProt Q63470); experiment: Inhibition of rat recombinant GST-tagged DYRK1A using KKISGRLSPIMTEQ as substrate and [gamma32]-ATP after 30 mins by scintillation counting
endpoint-label: pIC50
Reminder that pIC50 means the negative base-10 logarithm of the concentration expressed in mol/L.

CC(C)NC1=N/C(=C\c2ccc3c(c2)OCO3)C(=O)N1C = 6.41
CN1C(=O)/C(=C/c2ccc3c(c2)OCO3)N=C1Nc1ccc2c(c1)OCO2 = 6.40

Now look at this one.
Challenge: Look up pIC50 for this compound: CCNC1=N/C(=C\c2ccc3c(c2)OCO3)C(=O)N1
Response given: 6.39

----------
pIC50: recorded values
target: Dual specificity protein kinase CLK1 (Mus musculus, UniProt P22518); assay: Inhibition of mouse recombinant GST-tagged CLK1 using GRSRSRSRSRSR as substrate
Sequence (P22518 whole entry): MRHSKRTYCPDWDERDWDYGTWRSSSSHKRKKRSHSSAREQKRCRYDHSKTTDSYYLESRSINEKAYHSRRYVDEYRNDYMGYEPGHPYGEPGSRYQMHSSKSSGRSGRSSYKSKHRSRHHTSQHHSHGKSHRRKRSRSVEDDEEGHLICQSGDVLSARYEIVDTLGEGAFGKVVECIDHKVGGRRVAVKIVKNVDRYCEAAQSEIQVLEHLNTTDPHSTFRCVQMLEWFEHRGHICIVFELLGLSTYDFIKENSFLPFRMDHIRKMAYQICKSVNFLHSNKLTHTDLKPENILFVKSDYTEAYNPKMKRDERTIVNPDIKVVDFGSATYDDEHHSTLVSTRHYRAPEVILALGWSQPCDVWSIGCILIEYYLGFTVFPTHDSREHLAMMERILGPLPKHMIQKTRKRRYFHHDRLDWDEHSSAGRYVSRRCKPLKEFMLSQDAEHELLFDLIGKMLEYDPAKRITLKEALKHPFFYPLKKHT
Just the number, please; pIC50 means minus log10 of the concentration in mol/L.

# annotated cases, reported pIC50 shown
CCCNC1=N/C(=C\c2ccc3c(c2)OCO3)C(=O)N1C = 6.51
CN1C(=O)/C(=C/c2ccc3c(c2)OCO3)N=C1Nc1ccccc1 = 7.08
CCNC1=N/C(=C\c2ccc3c(c2)OCO3)C(=O)N1C = 6.77

Challenge: So what's the measured pIC50 for this one? CC(C)CNC1=N/C(=C\c2ccc3c(c2)OCO3)C(=O)N1C
Response given: 6.92

Challenge: Fill in: pIC50 of CN1C(=O)/C(=C/c2ccc3c(c2)OCO3)N=C1NCCCCCO is ___
Response given: 6.85

Challenge: Sample CN1C(=O)/C(=C/c2ccc3c(c2)OCO3)N=C1NCCO — what was its pIC50?
Response given: 6.92

----------
The following molecules are listed with their measured pIC50 values.
target: Serine/threonine-protein kinase pim-1 (Homo sapiens, UniProt P11309); test: Inhibition of human recombinant Pim1
Sequence (P11309 whole entry): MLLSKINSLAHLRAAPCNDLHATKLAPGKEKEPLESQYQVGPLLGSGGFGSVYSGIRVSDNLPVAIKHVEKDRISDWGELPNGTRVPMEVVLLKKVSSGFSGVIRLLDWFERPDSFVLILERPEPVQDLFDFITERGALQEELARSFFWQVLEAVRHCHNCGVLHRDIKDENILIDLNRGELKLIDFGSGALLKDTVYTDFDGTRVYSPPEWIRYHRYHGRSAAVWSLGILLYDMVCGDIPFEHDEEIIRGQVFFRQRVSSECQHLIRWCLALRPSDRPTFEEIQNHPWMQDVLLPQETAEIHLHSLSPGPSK
The quantity pIC50 is defined as the negative base-10 logarithm of the molar concentration.

CCCNC1=N/C(=C\c2ccc3c(c2)OCO3)C(=O)N1 = 5.60
CC(C)NC1=N/C(=C\c2ccc3c(c2)OCO3)C(=O)N1C = 5.40
CCCCNC1=N/C(=C\c2ccc3c(c2)OCO3)C(=O)N1C = 5.34
CN1C(=O)/C(=C/c2ccc3c(c2)OCO3)N=C1NCCCCCO = 5.21
CCNC1=N/C(=C\c2ccc3c(c2)OCO3)C(=O)N1C = 5.14
CN1C(=O)/C(=C/c2ccc3c(c2)OCO3)N=C1NCC1CC1 = 5.68
CN1C(=O)/C(=C/c2ccc3c(c2)OCO3)N=C1NCc1ccccc1 = 5.43
CN1C(=O)/C(=C/c2ccc3c(c2)OCO3)N=C1Nc1ccc(O)cc1 = 5.40

Challenge: Which pIC50 reading was recorded for the molecule Cc1ccc(NC2=N/C(=C\c3ccc4c(c3)OCO4)C(=O)N2)cc1 ?
Response given: 5.05

Provenance of the data: ChEMBL document CHEMBL1800025
